Values were extracted from ChEMBL document CHEMBL4364320.

System: Human immunodeficiency virus 1
Test: Antiviral activity against wild type HIV1 infected in human MT4 cells
Assay type: functional, organism-based
Settings: Human immunodeficiency virus 1, MT4
pIC50: −log10 of the molar value.
readoutName: pIC50

>  <compound>
COP(=O)(c1cc(C)cc(/C=C/C#N)c1)c1c(C(N)=O)[nH]c2ccc(Cl)cc12 (stereo unspecified)

>  <measurement>
10.10

$$$$

* * *

Target: Dihydrofolate reductase (Mycobacterium tuberculosis, UniProt P9WNX1)
Sequence (P9WNX1 whole entry): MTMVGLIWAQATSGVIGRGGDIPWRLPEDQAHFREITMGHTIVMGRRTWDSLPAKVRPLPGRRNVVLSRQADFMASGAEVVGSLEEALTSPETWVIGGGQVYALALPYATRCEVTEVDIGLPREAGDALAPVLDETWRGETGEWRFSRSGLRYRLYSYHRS
readoutName: IC50 (µM)

>  <smilesStr>
CC(=O)c1c(C)n(Cc2ccccc2)c2ccc(OCCCC(=O)O)cc12

>  <testedSystem>
Dihydrofolate reductase (Mycobacterium tuberculosis, UniProt P9WNX1)

>  <readoutName>
IC50

>  <valueUnit>
µM

>  <measurement>
150

$$$$

* * *

Target: Sodium-dependent serotonin transporter (Homo sapiens)
Sequence (P31645 whole entry): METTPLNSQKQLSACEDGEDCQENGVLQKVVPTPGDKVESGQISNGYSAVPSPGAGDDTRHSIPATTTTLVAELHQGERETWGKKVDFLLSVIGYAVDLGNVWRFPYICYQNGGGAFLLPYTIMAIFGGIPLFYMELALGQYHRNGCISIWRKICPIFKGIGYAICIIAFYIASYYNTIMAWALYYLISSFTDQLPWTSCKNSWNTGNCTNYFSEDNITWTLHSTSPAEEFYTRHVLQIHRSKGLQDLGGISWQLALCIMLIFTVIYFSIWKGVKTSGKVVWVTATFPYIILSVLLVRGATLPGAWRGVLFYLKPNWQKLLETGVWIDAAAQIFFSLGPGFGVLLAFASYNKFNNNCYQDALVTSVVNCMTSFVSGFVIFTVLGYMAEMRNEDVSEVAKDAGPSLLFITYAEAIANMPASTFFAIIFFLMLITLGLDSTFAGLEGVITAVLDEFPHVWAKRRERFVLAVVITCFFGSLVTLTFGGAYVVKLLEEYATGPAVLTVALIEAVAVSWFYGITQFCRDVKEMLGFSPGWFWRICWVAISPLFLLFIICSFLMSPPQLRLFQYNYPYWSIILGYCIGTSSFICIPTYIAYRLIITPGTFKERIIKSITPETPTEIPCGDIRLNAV
pKi: −log10 of the molar value.

>  <smilesStr>
Fc1cc2c(c(OCCNCCc3c[nH]c4ccc(F)cc34)c1)OCCC2

>  <pKi>
8.30

$$$$

* * *

Tested on: RAW264.7
Experiment: Inhibition of LPS-induced nitric oxide production in mouse RAW264.7 cells preincubated for 15 mins followed by LPS stimulation measured after 20 hrs by griess assay
Format: functional, cell-based
pIC50: −log10 of the molar value.
Here, each record is paired with measured pIC50 data.

>  <smilesStr>
O/N=C/c1c(-c2ccccc2)[nH]c2ccccc12

>  <pIC50>
5.36

$$$$
>  <smilesStr>
N#Cc1c(-c2ccccc2)[nH]c2ccccc12

>  <pIC50>
5.32

$$$$

* * *

System: RAW264.7
Assay: Inhibition of nitric oxide production in mouse RAW264.7 cells by griess assay
Assay type: functional, cell-based
readoutName: IC50

>  <smilesStr>
C#CCc1cn(C)c2c(O)cccc12

>  <readoutName>
IC50

>  <measurement>
39.8 µM

$$$$

* * *

Target: Dihydrofolate reductase (Homo sapiens)
Sequence (P00374 whole entry): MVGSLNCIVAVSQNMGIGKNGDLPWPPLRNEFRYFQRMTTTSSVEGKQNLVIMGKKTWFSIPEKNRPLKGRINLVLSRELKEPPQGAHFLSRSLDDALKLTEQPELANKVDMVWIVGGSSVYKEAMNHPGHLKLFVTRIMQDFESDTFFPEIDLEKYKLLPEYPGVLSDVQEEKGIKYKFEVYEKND
pIC50: −log10 of the molar value.

>  <smilesStr>
CC(=O)c1c(C)n(Cc2ccccc2)c2ccc(OCCCC(=O)O)cc12

>  <pIC50>
3.01

$$$$

* * *

Target: Prostaglandin G/H synthase 2 (Homo sapiens)
Sequence (P35354 whole entry): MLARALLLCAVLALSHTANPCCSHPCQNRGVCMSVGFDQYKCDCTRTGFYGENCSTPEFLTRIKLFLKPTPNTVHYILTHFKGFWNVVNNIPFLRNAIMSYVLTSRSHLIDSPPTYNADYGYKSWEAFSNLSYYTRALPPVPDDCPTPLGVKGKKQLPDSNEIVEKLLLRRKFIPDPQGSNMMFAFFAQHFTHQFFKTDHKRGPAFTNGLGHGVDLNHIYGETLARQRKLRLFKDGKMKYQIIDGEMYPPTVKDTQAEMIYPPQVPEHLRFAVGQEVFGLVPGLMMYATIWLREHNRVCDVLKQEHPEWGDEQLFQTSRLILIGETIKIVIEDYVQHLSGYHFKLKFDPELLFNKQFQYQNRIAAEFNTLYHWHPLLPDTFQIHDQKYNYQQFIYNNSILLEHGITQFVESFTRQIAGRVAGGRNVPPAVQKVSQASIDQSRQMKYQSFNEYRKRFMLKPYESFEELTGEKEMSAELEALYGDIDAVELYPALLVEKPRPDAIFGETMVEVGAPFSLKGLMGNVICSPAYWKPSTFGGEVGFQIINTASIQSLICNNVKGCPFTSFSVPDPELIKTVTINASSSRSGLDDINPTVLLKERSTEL
Assay: Inhibition of recombinant human COX2 assessed as decrease in PGE2 release after 10 mins by EIA
pIC50: −log10 of the molar value.
readoutName: pIC50

>  <smilesStr>
C#CCc1cn(C)c2c(O)cccc12

>  <measurement>
5.21

$$$$
